Test system: human primary normal lung cells (HFL-1)
Experiment: MTT cytotoxicity assay, HFL-1
Assay type: cell-based
Conditions: HFL1, 24 h treatment
pIC50 reference
For clarity, pIC50 is expressed as the negative log10 of concentration in mol/L.

Query block: Indicate the recorded pIC50 value for this molecule: CCN(CC)c1ccc(C2CC(c3ccc(Br)cc3)=NN2C(N)=S)cc1 (stereo not drawn) [Compound 3l]
Result block: 3.73

Query block: Entry CN(C)c1ccc(C2CC(c3cccc(Br)c3)=NN2C(N)=O)cc1 (stereo not drawn) [Compound 3h] needs its pIC50 filled in; supply it.
Result block: 3.76

Query block: Return reported pIC50. Input molecule: CN(C)c1ccc(C2CC(c3cccc(Br)c3)=NN2C(N)=S)cc1 (stereo not drawn) [Compound 3b]
Result block: 3.64

---

System: human primary normal lung cells (HFL-1)
Test: MTT cytotoxicity assay, HFL-1
Format: cell-based
Details: HFL1, 24 h treatment
observable: pIC50
// pIC50: -log10(molar conc.)

Solved cases (4 shown):
compound	target entity	pIC50
CN(C)c1ccc(C2CC(c3ccc(Br)cc3)=NN2C(N)=S)cc1 (stereo not drawn)	human primary normal lung cells (HFL-1)	3.71
CN(C)c1ccc(C2CC(c3ccc(Cl)cc3)=NN2C(N)=S)cc1 (stereo not drawn)	human primary normal lung cells (HFL-1)	3.94
Cc1ccc(C2=NN(C(N)=S)C(c3ccc(N(C)C)cc3)C2)cc1 (stereo not drawn)	human primary normal lung cells (HFL-1)	3.61
CN(C)c1ccc(C2CC(c3cccc4ccccc34)=NN2C(N)=S)cc1 (stereo not drawn)	human primary normal lung cells (HFL-1)	3.78

Query block: Provide only the value of recorded pIC50 for CN(C)c1ccc(C2CC(c3ccc([N+](=O)[O-])cc3)=NN2C(N)=O)cc1 (stereo not drawn)
Result block: 3.78

Query block: Look up and report measured pIC50 for this entry: CN(C)c1ccc(C2CC(c3ccc(Cl)cc3)=NN2C(N)=O)cc1 (stereo not drawn)
Result block: 4.57

Query block: Return pIC50 (reported value) for this compound: CN(C)c1ccc(C2CC(c3cccc([N+](=O)[O-])c3)=NN2C(N)=S)cc1 (stereo not drawn)
Result block: 3.73

Query block: Hello, please tell me recorded pIC50 for this one: CN(C)c1ccc(C2CC(c3cccc4ccccc34)=NN2C(N)=O)cc1 (stereo not drawn)
Result block: 4.56

Query block: State its pIC50 for this compound: CN(C)c1ccc(C2CC(c3ccccc3Cl)=NN2C(N)=S)cc1 (stereo not drawn)
Result block: 3.66
